So I've got a bunch of molecules here, and I need their IC50 values.
System Name: human CYP1A2 (Homo sapiens, UniProt P05177)
Sequence (P05177 whole entry): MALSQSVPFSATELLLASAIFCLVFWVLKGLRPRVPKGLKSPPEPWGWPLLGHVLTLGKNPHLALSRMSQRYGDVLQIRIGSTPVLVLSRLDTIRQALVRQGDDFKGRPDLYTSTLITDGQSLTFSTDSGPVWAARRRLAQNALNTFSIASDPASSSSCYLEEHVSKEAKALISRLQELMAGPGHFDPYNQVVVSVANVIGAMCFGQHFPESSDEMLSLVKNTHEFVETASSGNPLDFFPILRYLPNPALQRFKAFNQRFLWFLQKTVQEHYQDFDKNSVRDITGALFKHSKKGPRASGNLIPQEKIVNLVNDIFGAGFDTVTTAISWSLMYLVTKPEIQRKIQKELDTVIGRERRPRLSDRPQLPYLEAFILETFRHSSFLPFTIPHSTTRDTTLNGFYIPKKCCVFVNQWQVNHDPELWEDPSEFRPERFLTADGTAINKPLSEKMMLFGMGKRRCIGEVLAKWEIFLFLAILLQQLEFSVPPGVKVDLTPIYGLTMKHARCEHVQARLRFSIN
Test Description: biochemical
Where a name gives a salt, the structure may show the parent alone.
Express the result in µM but write the number alone.

Check the records and state IC50 for CN(Cc1cc(Br)cc(Br)c1N)C1CCCCC1 [Bromhexine hydrochloride]
28.1

Query IC50 for O=c1cc(-c2ccccc2)oc2ccccc12
0.26

For the molecule CN(C)c1ccc(N=NS(=O)(=O)O)cc1 , give its measured IC50 value.
5.75

Tell me IC50 reported for CC(C)(Cc1c[nH]c2ccccc12)NCC(O)COc1ccccc1C#N (centres unmarked)
29.2

Check the records and state IC50 for CCN(CC)CCOc1ccccc1C(=O)CCc1ccccc1
6.05

Quickly give me recorded IC50 for CCCCC(CC)CN1C(=O)C2C3C=CC(C3)C2C1=O (centres unmarked)
18.6

Provide measured IC50 value, entry: O=C1c2ccccc2C(=O)c2c(Cl)cccc21
0.05

Return IC50 (reported value) for this molecule: CCC(=O)O[C@H]1[C@H](O[C@@H]2[C@@H](C)[C@H](O[C@H]3C[C@@](C)(OC)[C@@H](O)[C@H](C)O3)[C@@H](C)C(=O)O[C@H](CC)[C@@](C)(O)[C@H](O)[C@@H](C)C(=O)[C@H](C)C[C@@]2(C)O)O[C@H](C)C[C@@H]1N(C)C [Erythromycin estolate]
33.5

Return the recorded IC50 value; entry: COC(=O)C1=C(C)NC(C)=C(C(=O)OCCc2ccc(N3CCN(C(c4ccccc4)c4ccccc4)CC3)cc2)C1c1cccc([N+](=O)[O-])c1 (centres unmarked)
14.6

Query IC50 for C=CCOc1cc(Cl)ccc1C(=O)NCCN(CC)CC [Alloclamide]
3.34

Give the reported value of IC50 for this record: O=C1N(c2ccccc2)c2ccccc2C1(Cc1ccncc1)Cc1ccncc1
24.1

Quote IC50 reported for Clc1cccc(C(c2ccc3[nH]cnc3c2)n2ccnc2)c1 (centres unmarked) please.
16.8

Note down IC50 recorded for O=C(NOCC1CC1)c1ccc(F)c(F)c1Nc1ccc(I)cc1Cl
14.4

Specify measured IC50 for c1ccc(CCCc2ccncc2)cc1 .
1.14

Identify the reported IC50 for the following entry. CN1CCN(CCCN2c3ccccc3Sc3ccc(S(=O)(=O)N(C)C)cc32)CC1 [Thioproperazine dimethanesulfonate]
24.1

Return reported IC50. Input molecule: CC(C)OC(=O)c1cc(C(=O)OC(C)C)cc([N+](=O)[O-])c1
2.34

Supply reported IC50 belonging to this molecule: C#Cc1ccc(-c2ccccc2F)cc1
0.88

Please give the documented IC50 of CN1CCCN=C1COC(=O)C(O)(c1ccccc1)C1CCCCC1 (centres unmarked) [Oxyphencyclimine hydrochloride]
14.6

Please look at this molecule and report its IC50: CN(C)[C@@H](CCOc1cccc2ccccc12)c1ccccc1
5.87

For the molecule CCC1(c2cnc[nH]2)Cc2ccccc2C1 , give its reported IC50.
11

Quickly give me recorded IC50 for CN(C/C=C/C#CC(C)(C)C)Cc1cccc2ccccc12 [terbinafine, reference compound]
16.8

For the molecule O=c1c2ccccc2oc2ccccc12 , report IC50.
0.5

Please give measured IC50 of the following entry: COc1ccnc2c1CCCCC2[S+]([O-])c1nc2ccccc2[nH]1 (centres unmarked)
14.9

Report measured IC50; entry is CCCN(CCc1cccs1)[C@H]1CCc2c(O)cccc2C1
31

Determine from records and report IC50 for COC(=O)c1c(Cl)c(Cl)c(C(=O)OC)c(Cl)c1Cl
0.21

Answer with reported IC50 of CCCCCCCCCCCCCCCC[N+](C)(C)CC [Ethylhexadecyldimethylammonium bromide]
74.4

Consider the molecule Clc1ccc(C(Cn2ccnc2)OCc2ccc(Sc3ccccc3)cc2)c(Cl)c1 (centres unmarked) [Fenticonazole nitrate] . State its measured IC50.
16.1

Tell me its IC50 given CCOC(=O)c1c(N)sc2c1CCN(Cc1ccccc1)C2 as the entry.
16.1

Please give measured IC50 of the following entry: CCCCc1cc2ccccc2c(OCCN(C)C)n1 [Dimethisoquin hydrochloride]
0.47

Identify the reported IC50 for the following entry. COC(=O)C1=C(C)NC(C)=C(C(=O)OC(C)(C)CN(C)CCC(c2ccccc2)c2ccccc2)C1c1cccc([N+](=O)[O-])c1 (centres unmarked) [Lercanidipine hydrochloride]
32.8

Please report IC50 for the following molecule: CCc1ccc(C2CCNCC2)cc1
23.2

Tell us which IC50 value is on record for C[C@@H](NCCCc1cccc(C(F)(F)F)c1)c1cccc2ccccc12 [Cinacalcet hydrochloride]
26.9

Specify reported IC50 for the molecule shown: O=C1c2ccccc2C(=O)c2cc(Cl)ccc21
0.11

Annotate the molecule Nc1ccc(C(=O)N2CC3CC(CN(Cc4ccccc4)C3)C2)cc1 [Ambasilide] with its measured IC50.
30.9

Please look at this molecule and report its IC50: CC(C(O)c1ccccc1)N(C)CCOC(c1ccccc1)c1ccccc1 (centres unmarked)
23.5
